measurement-description: Enzymatic stability in murine plasma
Assay type: in vitro ADME
conditions: mouse, 37°C, 2-h incubation, HPLC separation, MS analysis, percentage from peak areas, read-out: Percentage intact peptide remaining (%) 2 h
recorded-endpoint: remaining at 2 h (%)
Supply the numeric figure in %, leaving out any unit text.

I am curious: what remaining at 2 h value has been reported for "CC[C@H](C)[C@H](NC(=O)[C@H](Cc1ccc(O)cc1)NC(=O)[C@@H]1CCCN1C(=O)[C@H](CCCNC(=N)N)NC(=O)[C@H](CCCNC(=N)N)NC(C)=O)C(=O)N[C@@H](CC(C)C)C(=O)O" ?
98.2

###

measurement-description: Enzymatic stability in murine plasma
Type: in vitro ADME
conditions: mouse, 37°C, 4-h incubation, HPLC separation, MS analysis, percentage from peak areas, read-out: Percentage intact peptide remaining (%) 4 h
recorded-endpoint: remaining at 4 h (%)
Supply the numeric figure in %, leaving out any unit text.

I am curious: what remaining at 4 h value has been reported for "CC[C@H](C)[C@H](NC(=O)[C@H](Cc1ccc(O)cc1)NC(=O)[C@@H]1CCCN1C(=O)[C@H](CCCNC(=N)N)NC(=O)[C@H](CCCNC(=N)N)NC(C)=O)C(=O)N[C@@H](CC(C)C)C(=O)O" ?
94.4

###

measurement-description: Enzymatic stability in murine plasma
Assay type: in vitro ADME
conditions: mouse, 37°C, 2-h incubation, HPLC separation, MS analysis, percentage from peak areas, read-out: Percentage intact peptide remaining (%) 2 h
No end group written: not given here.
recorded-endpoint: remaining at 2 h (%)
Supply the numeric figure in %, leaving out any unit text.

# substance, units-symbol, reported-measurement
records = [
    ("HPQQPWIL [Xenin-8-Gln]", "%", 100),
]

As a next step, examine the substance that follows.
I am curious: what remaining at 2 h value has been reported for Ac-RRPYILHPQQPWIL [Ac-NT/XN-8-Gln] ?
100

###

measurement-description: Enzymatic stability in murine plasma
Format: in vitro ADME
conditions: mouse, 37°C, 8-h incubation, HPLC separation, MS analysis, percentage from peak areas, read-out: Percentage intact peptide remaining (%) 8 h
No end group written: not given here.
recorded-endpoint: remaining at 8 h (%)
Supply the numeric figure in %, leaving out any unit text.

I am curious: what remaining at 8 h value has been reported for Ac-RRPYILHPQQPWIL [Ac-NT/XN-8-Gln] ?
91.7
